Ref: ChEMBL document CHEMBL1201862

Test system: HOP-62
methodDescription: NCI tumour cell line growth inhibition, 48 h
The source made the active and inactive calls. Cut-off read from the data, not from the text of the source: active = GI50 up to about 1.1 µM and inactive = higher. Positions of bridges follow the written chain, without caps; N, C: chain ends. Non-standard residues stand in square brackets, D forms with d. Residues, ends and D or L forms follow the SMILES beside them. *: point of attachment. PhAc = O=C(Cc1ccccc1)*
Labels: active, inactive

molecule	classification
O=C1Nc2ccccc2/C1=N/NC(=S)Nc1cccc(Cl)c1	inactive
CNc1ccc(Cl)cc1C(=O)N1CCC[C@H]1CO	inactive
CN(C)CCNC(=O)c1cccc2nc3c(nc12)-c1ccccc1C3=O	inactive
CC(=O)O[C@@H]1C[C@@]2(C)[C@@H]3CC=C4[C@@H](C[C@H](O)C(=O)C4(C)C)[C@]3(C)C(=O)C[C@]2(C)[C@H]1[C@@](C)(O)C(=O)/C=C/C(C)(C)OC(C)=O	active
OCCSCC(O)Cn1cnc2c(O)nc(Nc3ccccc3)nc21 (stereo unspecified)	inactive
O=C1C(/C=C/c2ccc(Cl)cc2)=NNC2N1N=C1NC(=O)C3(NN12)c1ccccc1-c1ccccc13 (stereo unspecified)	inactive
CCCCCCCC/C=C\CCCCCCCCCCCC(=O)O [ERUCIC ACID]	inactive
COc1cccc2c1C1(O)C2CCCC12OCCCO2 (stereo unspecified)	inactive
N#Cc1nc(-c2ccco2)oc1N	inactive
CCN(CC)C(=O)N1CN(c2ccccc2)C2(CCN(CCCC3(c4ccc(F)cc4)OCCO3)CC2)C1=O	inactive
Cc1cn(CC2=NCCN2)c(=O)[nH]c1=O	inactive
O=C(CO)CC(=O)C(=O)Nc1cccc(C(F)(F)F)c1	inactive
O=C(COc1ccc(/C=C/C(=O)c2ccc(Cl)cc2)cc1)Nc1c(Cl)cccc1Cl	inactive
COc1ccccc1N=C(S)Nc1ccccn1	inactive
COc1ccc(-n2c(N)c(C#N)[nH]c2=O)cc1	inactive
CC1(C)COC(c2c(-c3ccccc3)noc2C[S+]([O-])c2ccccc2)=N1 (stereo unspecified)	inactive
CN(O)C(=S)c1ccccc1	inactive
O=C(Cc1ccccc1)N[C@@H]1COC(=O)[C@@H]2CCCN2C(=O)[C@@H]2CCCN2C1=O (PhAc-[dS]-Pro-Pro; ester 1-C)	inactive
O=C1NCC(CSc2nc3cc(C4CCCc5c4[nH]c4ccccc54)ccc3o2)N1 (stereo unspecified)	inactive
Oc1ncnc2c1nnn2CCCn1nnc2c(O)ncnc21	inactive
NNC(=O)c1c(-c2cccnc2)cnc2ccccc12	inactive
